# target_desc: Pax6 DNA-binding domain (BD-Pax6) (Mus musculus (B6), UniProt P63015 190-289)
# Sequence (P63015 190-289): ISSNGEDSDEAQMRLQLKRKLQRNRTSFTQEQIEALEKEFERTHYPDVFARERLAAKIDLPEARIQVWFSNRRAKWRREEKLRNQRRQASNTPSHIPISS
# procedure_details: EMSA; 10% glycerol, 20 mM HEPES pH 7.8, 45 mM KCl, 10 mM NaCl, 1 mM EDTA, 1 mM DTT, 0.2 ug/uL BSA, 0.1% NP-40, 50 ng poly-dIdC; 20 ng each GST protein; room temperature 30 min (heterodimers 4 C); 6% PAGE 0.25x TBE
# condition_parameters: protein: recombinant; tags: GST (N-terminal, pGEX-6P-1); label: 32P-dCTP fill-in of the 5' (dG)5 overhangs of both strands (Methods; control probes are given with GGG)
reported_metric: binding result

binder	observed_measurement
44 (dsDNA) DNA 1: GGGGGAAACCATGGGGGGTGGGCTGTAAACACAAAAAGGATTCCCCCC DNA 2: GGGGGGAATCCTTTTTGTGTTTACAGCCCACCCCCCATGGTTTCCCCC	no binding
101 (dsDNA) DNA 1: GGGGGTGCCTCCTTTTGTGAGCTATTTATAATGCTAACCCCC DNA 2: GGGGGTTAGCATTATAAATAGCTCACAAAAGGAGGCACCCCC	no binding
16b (dsDNA) DNA 1: GGGGGGTAGCTTCACAAAGTGATTAACACATGGATACCCCC DNA 2: GGGGGTATCCATGTGTTAATCACTTTGTGAAGCTACCCCCC	no binding
113 (dsDNA) DNA 1: GGGGGACTAAGTCATTGTTTATTTCCGTGCTGTTCCCCC DNA 2: GGGGGAACAGCACGGAAATAAACAATGACTTAGTCCCCC	no binding
42 (dsDNA) DNA 1: GGGGGGCTTCAGCATTGTGAAATTGAATCATTGCCCCCC DNA 2: GGGGGGCAATGATTCAATTTCACAATGCTGAAGCCCCCC	binds

Using the record for 109 (dsDNA) DNA 1: GGGGGCTTTTTTTTTTGTATGTGATTTGAGGCAGAGTCCCCC DNA 2: GGGGGACTCTGCCTCAAATCACATACAAAAAAAAAAGCCCCC , report its binding result.
no binding

Suppose we examine the binder 102b (dsDNA) DNA 1: GGGGGAAAACAAAACAAAACTGGATTTGGCGATTGTATCCCCC DNA 2: GGGGGATACAATCGCCAAATCCAGTTTTGTTTTGTTTTCCCCC ; what binding result value has been reported?
no binding

// lookup binding result for 53 (dsDNA) DNA 1: GGGGGTGCTTGTGACAAATCTGTCAATTTCTGGTGGGGGCCCCCC DNA 2: GGGGGGCCCCCACCAGAAATTGACAGATTTGTCACAAGCACCCCC
no binding

Request the reported binding result associated with 50 (dsDNA) DNA 1: GGGGGTTTGTAAGTTTGTACCATTTGGCCTCAGCCCCCCC DNA 2: GGGGGGGCTGAGGCCAAATGGTACAAACTTACAAACCCCC
no binding
